# Subject of test: CDK9/CycT1 (Homo sapiens)
# Construct: Recombinant full-length His-tagged human CDK9 and CycT1; His
# Sequence (P50750 whole entry): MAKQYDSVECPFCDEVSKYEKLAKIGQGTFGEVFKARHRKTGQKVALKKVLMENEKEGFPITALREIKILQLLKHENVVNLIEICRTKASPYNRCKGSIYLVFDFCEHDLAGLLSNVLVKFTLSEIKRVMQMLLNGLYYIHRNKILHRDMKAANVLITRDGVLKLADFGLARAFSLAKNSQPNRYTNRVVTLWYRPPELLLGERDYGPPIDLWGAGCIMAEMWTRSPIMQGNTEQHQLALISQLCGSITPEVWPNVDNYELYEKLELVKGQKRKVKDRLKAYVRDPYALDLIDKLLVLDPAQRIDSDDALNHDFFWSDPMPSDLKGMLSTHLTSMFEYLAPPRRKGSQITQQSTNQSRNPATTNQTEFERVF
# Sequence (O60563 whole entry partner): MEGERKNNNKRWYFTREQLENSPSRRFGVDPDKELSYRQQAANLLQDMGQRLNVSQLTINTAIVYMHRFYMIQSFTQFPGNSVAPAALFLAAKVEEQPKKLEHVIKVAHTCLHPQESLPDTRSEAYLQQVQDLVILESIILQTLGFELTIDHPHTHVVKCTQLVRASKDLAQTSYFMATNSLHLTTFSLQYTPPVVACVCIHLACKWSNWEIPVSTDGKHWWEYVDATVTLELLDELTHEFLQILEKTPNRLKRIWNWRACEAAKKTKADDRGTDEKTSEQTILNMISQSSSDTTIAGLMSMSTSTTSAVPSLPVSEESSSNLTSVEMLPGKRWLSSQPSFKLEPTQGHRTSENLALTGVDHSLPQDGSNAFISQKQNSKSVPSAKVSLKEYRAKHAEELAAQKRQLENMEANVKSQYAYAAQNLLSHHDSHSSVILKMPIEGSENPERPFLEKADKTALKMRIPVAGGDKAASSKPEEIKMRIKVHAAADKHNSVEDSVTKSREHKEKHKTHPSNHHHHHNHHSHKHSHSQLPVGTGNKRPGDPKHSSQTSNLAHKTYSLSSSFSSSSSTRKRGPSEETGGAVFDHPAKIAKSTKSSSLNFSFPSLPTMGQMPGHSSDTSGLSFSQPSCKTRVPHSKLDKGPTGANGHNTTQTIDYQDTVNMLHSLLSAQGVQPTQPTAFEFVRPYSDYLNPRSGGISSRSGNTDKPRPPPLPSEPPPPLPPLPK
# Protocol text: CDK9/CycT1 high ATP kinase assay (TR-FRET)
# Condition info: 2 mM ATP, Method 1b
Reported property: pIC50
Give bare numbers, as −log10 of the molar value.

> print(dat)
                                   compound  obs.value
1  CC1CCCNc2cc(ccc2F)-c2nc(ncc2F)Nc2cc(CS(C)(=O)=O)cc(c2)O1 (racemic) [Example 8]       9.10
2  CS(=N)(=O)Cc1cc2cc(c1)OCCCCNc1cc(ccc1F)-c1nc(ncc1F)N2 (single isomer, unassigned) [Example 9]       8.64
3  CS(=N)(=O)Cc1cc2cc(c1)OCCCNc1cc(ccc1F)-c1nc(ncc1F)N2 (racemic) [Example 3]       8.74

// next entry
Item: CS(=N)(=O)Cc1cc2cc(c1)OCCCCNc1cc(ccc1F)-c1nc(ncc1F)N2 (racemic) [Example 2] | pIC50: 8.74
